Data provenance: paper PMC4336329

- experimental-system: human ether-à-go-go-related gene (hERG) potassium channel (human);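 note: peak tail current of the secondary pulse compared with the same well before compound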
- Sequence (Q12809 whole entry, looked up): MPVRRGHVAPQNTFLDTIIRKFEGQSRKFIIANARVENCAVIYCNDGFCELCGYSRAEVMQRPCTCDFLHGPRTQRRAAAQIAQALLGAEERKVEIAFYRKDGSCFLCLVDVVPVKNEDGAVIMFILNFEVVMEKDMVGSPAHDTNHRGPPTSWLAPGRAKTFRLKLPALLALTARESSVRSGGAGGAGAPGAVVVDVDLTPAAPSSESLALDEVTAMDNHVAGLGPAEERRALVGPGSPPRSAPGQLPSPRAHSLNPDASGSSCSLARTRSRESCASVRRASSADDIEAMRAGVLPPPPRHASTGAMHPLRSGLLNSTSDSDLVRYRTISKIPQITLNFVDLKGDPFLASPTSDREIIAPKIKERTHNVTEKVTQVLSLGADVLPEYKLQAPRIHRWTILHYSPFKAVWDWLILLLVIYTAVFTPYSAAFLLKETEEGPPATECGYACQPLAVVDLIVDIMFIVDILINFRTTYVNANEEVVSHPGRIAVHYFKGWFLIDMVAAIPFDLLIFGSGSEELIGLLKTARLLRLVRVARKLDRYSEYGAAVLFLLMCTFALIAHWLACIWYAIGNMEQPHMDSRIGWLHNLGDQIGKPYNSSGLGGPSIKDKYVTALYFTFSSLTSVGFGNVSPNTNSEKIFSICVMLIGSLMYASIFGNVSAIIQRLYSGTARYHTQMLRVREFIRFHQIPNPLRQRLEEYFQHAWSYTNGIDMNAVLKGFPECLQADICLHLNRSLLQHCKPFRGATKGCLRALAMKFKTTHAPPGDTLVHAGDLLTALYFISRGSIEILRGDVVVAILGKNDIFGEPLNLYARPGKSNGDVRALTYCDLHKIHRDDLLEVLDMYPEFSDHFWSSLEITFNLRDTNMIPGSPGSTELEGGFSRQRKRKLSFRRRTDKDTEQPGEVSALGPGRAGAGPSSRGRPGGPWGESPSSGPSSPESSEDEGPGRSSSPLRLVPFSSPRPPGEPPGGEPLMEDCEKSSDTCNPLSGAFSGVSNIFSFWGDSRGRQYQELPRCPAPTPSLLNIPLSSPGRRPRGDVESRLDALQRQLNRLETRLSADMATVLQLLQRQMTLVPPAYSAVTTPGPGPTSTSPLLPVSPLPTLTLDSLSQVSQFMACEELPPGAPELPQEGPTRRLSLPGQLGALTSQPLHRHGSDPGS
- test-summary: primary screen, population patch clamp on CHO cells stably expressing hERG; higher = less effect of the substance
The campaign covered roughly 310,000 compounds. About 14,000 (4.5%) showed an effect of 50% or more. Effects have a minus sign here. The full list was thinned out, with strong results kept by preference.
The molecules listed here are annotated with their hERG current change (%, negative = inhibition) at 10uM.
Give just the number in %; leave the unit off.

Some molecules with recorded hERG current change (%, negative = inhibition) at 10uM:
CCCCN(C)CCCNC(=O)c1cc(-c2cccs2)nc2ccccc12 : -85.6
Cc1ccc(N(C)C(=O)n2cnc3ccccc32)cc1 : -1.52
CC1(C)c2[nH]c3ccccc3c2C[C@@H]2C(=O)N(Cc3ccccc3Cl)C(=O)N21 : 15.4
Cc1ccc(-c2c(C(=O)N/N=C/c3cccs3)nnn2-c2nonc2N)cc1 : 29.8
COCCN1C(=O)N(c2ccccc2)C(=O)C1CC(=O)Nc1cc(OC)cc(OC)c1 (centres unmarked) : 14

// fetch hERG current change (%, negative = inhibition) at 10uM; item: "COC(=O)c1ccccc1NC(=S)NC(=O)c1ccc2c(c1)OCO2" ; system: human ether-à-go-go-related gene (hERG) potassium channel (human);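 note: peak tail current of the secondary pulse compared with the same well before compound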
32.6
